Listing: TGI of selected molecules
Test system: A549 NSCLC
Method notes: NCI tumour cell line growth inhibition, 48 h

Here's what some known entries look like.
[[record]]
molecule = "c1cc(CNCCN2CCNCC2)ccn1"
measured_quantity = "TGI"
observed_result = "> 100 µM"

[[record]]
molecule = "CCc1cccc(C(C)C)c1NC(=O)C(=O)C(CC(=O)Nc1ccc(Cl)c(Cl)c1)C(=O)OC (stereo unspecified)"
measured_quantity = "TGI"
observed_result = "> 100 µM"


molecule Nc1nc(-c2ccccc2)nc(N)c1N=O , TGI observed: 23.3 µM

For this molecule ( COCCCNC(=O)CC(=O)NCCCOC ), measured TGI is > 100 µM

molecule N#Cc1c(N)nc(N2CCOCC2)c(C#N)c1-c1cccnc1 , TGI observed: > 100 µM

Value of TGI reported for the molecule COc1cc(C2C(C(=O)O)=C(COC(C)=O)Oc3cc4c(cc32)OCO4)cc(OC)c1OC (stereo unspecified) is > 100 µM

###

Tested on: SK-MEL-5 melanoma
Method notes: NCI tumour cell line growth inhibition, 48 h
Measured quantity: TGI

Examples from the recorded data:
[[record]]
compound = "Cc1cccc2c(=O)c3c(sc12)c(NCCNCCO)nc1ccccc13"
observed_result = "3.08 µM"

[[record]]
compound = "COC(=O)C1=C(O)C(C(=O)OC)[C@]2(O)[C@H](C(=O)OC)[C@H]1C[C@@H](c1c(Cl)cccc1Cl)[C@H]2C(=O)OC (stereo not given in full)"
observed_result = "3.02 µM"

[[record]]
compound = "CN(C)c1ccccc1CN1CCCN(Cc2ccccc2N(C)C)C1c1ccncc1"
observed_result = "18.3 µM"


Reported TGI of CC(=O)N(O)[C@@H]1CC[C@H](n2cnc3c(N)ncnc32)C1 : > 100 µM

Briefly, TGI measured for CCC1CCc2nc3sc(C(=O)Nc4cccc(F)c4)c(N)c3cc2C1 (stereo not given) : > 100 µM

// field: TGI; key: Cc1cc(N(CCNc2ccnc3cc(Cl)ccc23)Cc2ccco2)nc(Cl)n1 ; value = 3.13 µM

Reported TGI ( O=C1/C(=C/c2ccccc2O)N=C(c2ccccc2)N1c1nc2ccccc2s1 ) = 23.3 µM

Just so you know, measured TGI for CCC1CN2CCc3c([nH]c4ccccc34)C2C[C@@H]1CC(=O)N(C)C (stereo not given in full) came out at > 100 µM

// TGI lookup, compound = Cc1cccnc1/N=C/c1c(O)n(C)c(=O)[nH]c1=O , result: > 100 µM

Given item O=C(/C=C/c1cc([N+](=O)[O-])ccc1Cl)c1ccccc1 , the value recorded as its TGI is 29.3 µM

###

Quick reference: TGI of the listed items.
System: SK-OV-3 ovarian
Method notes: NCI tumour cell line growth inhibition, 48 h

Answered examples (2):
[[record]]
compound = "CCn1cc(C(=O)O)c(=O)c2cc3c(cc21)S(=O)(=O)CC3"
measured_quantity = "TGI"
observed_result = "> 100 µM"

[[record]]
compound = "CSCCCNC(=O)c1csc(-c2csc(C(CNC(=O)OC(C)(C)C)CNC(=O)OC(C)(C)C)n2)n1"
measured_quantity = "TGI"
observed_result = "> 100 µM"


Note to self: TGI recorded for COc1cc(C2=C(C#Cc3ccccc3)COC2=O)cc(OC)c1OC was > 100 µM

Lookup result for CCc1cccc(C(C)C)c1NC(=O)C(=O)C(CC(=O)Nc1ccc(Cl)c(Cl)c1)C(=O)OC (stereo unspecified) ; measured TGI: > 100 µM

Please fill in: TGI reported for Cc1ccc(O)c(-c2cc(-c3cccc(Cl)c3)c(C#N)c(N)n2)c1 = 66.2 µM

// recorded TGI for O=C(Cc1nc2ccccc2s1)Nc1cccc(C(F)(F)F)c1 : 44.3 µM

###

System: HCC-2998 colon
Method notes: NCI tumour cell line growth inhibition, 48 h
Measured quantity: TGI

Worked examples follow.
[[record]]
compound = "c1csc(-c2cc(-c3cccs3)c(-c3cccs3)s2)c1"
observed_result = "> 100 µM"

[[record]]
compound = "COc1cc(OC)c(/C=C/c2cnc3ccccc3n2)c(OC)c1"
observed_result = "> 10 µM"

[[record]]
compound = "C#CC1(O)C(COP(=O)(O)OCC2OC(n3ccc(NCCCCCCCCCCCCCCCCCC)nc3=O)C(O)C2O)OC(n2ccc(N)nc2=O)C1O (stereo not drawn)"
observed_result = "> 34.5 µM"

[[record]]
compound = "CC(=O)N(O)[C@@H]1CC[C@H](n2cnc3c(N)ncnc32)C1"
observed_result = "> 100 µM"

[[record]]
compound = "O=S(=O)(O)ON=C1c2ccccc2-c2ccccc21"
observed_result = "> 100 µM"

[[record]]
compound = "CCOC(=O)c1ccc(C(=O)/C(C(C)=O)=C2\\CCCN2C)n1C"
observed_result = "> 100 µM"

[[record]]
compound = "O=C(CCC(=O)C(C(=O)c1ccccc1)c1ccccc1)Nc1cccc(C(F)(F)F)c1 (stereo not drawn)"
observed_result = "> 100 µM"


Let us examine a further case.
// recorded TGI for O=C(NP(=O)(N1CC1)N1CC1)c1cc(I)ccc1I : > 100 µM

###

Test system: HS 578T breast
Method notes: NCI tumour cell line growth inhibition, 48 h
Property: GI50; scope: individual compounds

// recorded GI50 for COc1cc(O)c(C(=O)/C=C/c2ccc(O)cc2)c(O)c1[C@@H]1C[C@H](CCc2ccc(O)cc2)O[C@H](c2ccc(O)cc2)C1 : 3.34 µM

The compound O=[N+]([O-])c1c(Br)sc(Br)c1[N+](=O)[O-] showed GI50 equal to 2.59 µM

GI50 for O=C(Nc1ccccc1)NS(=O)(=O)c1ccc(-n2nc3c(c2-c2ccc(Cl)cc2)Cc2ccccc2-3)cc1 is 19.6 µM

Short answer for CCCCCCCCCCCC1CCCC(C)N1 (stereo not given) : GI50 was 8.6 µM

The compound listed as CC(=O)O[C@]1(C(C)=O)CC[C@H]2[C@@H]3C=C(C)C4=CC(=O)CC[C@]4(C)[C@H]3CC[C@@]21C has a reported GI50 of > 60.4 µM

###

Let's look at some compounds and their measured TGI.
Tested on: PC-3 prostate
Method notes: NCI tumour cell line growth inhibition, 48 h

So for CCn1cc(C(=O)O)c(=O)c2cc3c(cc21)S(=O)(=O)CC3 , the logged TGI turned out to be > 100 µM

Lab book: TGI of COC1(OC)CC(CO)(CNc2cc(Cl)nc(N)n2)C1 noted as > 100 µM

What the record says about O=C1[C@@H]2[C@@H](c3ccccc3)[C@]2(Cl)C(=O)[C@H]2[C@H](c3ccccc3)[C@@]12Cl : TGI is > 100 µM

###

Test system: MCF7 breast
Method notes: NCI tumour cell line growth inhibition, 48 h
Listing of entries alongside the reported TGI.

Look over these answered cases.
[[record]]
compound = "Cc1cc(Cc2c(F)c(F)c(C(c3cc(C)no3)c3c(F)c(F)c(F)c(F)c3F)c(F)c2F)on1 (centres undefined)"
measured_quantity = "TGI"
observed_result = "> 100 µM"

[[record]]
compound = "CC(=O)N(O)[C@@H]1CC[C@H](n2cnc3c(N)ncnc32)C1"
measured_quantity = "TGI"
observed_result = "> 100 µM"

[[record]]
compound = "O=C(CCCCCCC(=O)Nc1cccnc1)NO"
measured_quantity = "TGI"
observed_result = "> 100 µM"


Next, consider the following compound.
Note to self: TGI recorded for CC1(CCCO)CCCCCCCCCC(C)(CCCO)C1=O (centres undefined) was > 100 µM

###

# TGI per entry
Tested on: MOLT-4 leukemia
Method notes: NCI tumour cell line growth inhibition, 48 h

[[record]]
molecule = "COc1ccc(OC)c(CC2CCc3nc(N)nc(N)c3C2)c1 (stereo unspecified)"
assay_system = "MOLT-4 leukemia"
measured_quantity = "TGI"
observed_result = "> 100 µM"

[[record]]
molecule = "O=C(Cc1nc2ccccc2s1)Nc1cccc(C(F)(F)F)c1"
assay_system = "MOLT-4 leukemia"
measured_quantity = "TGI"
observed_result = "25.8 µM"

[[record]]
molecule = "O=C1CCC(=O)N1n1c(Cc2ccc(Cl)cc2)n[nH]c1=O"
assay_system = "MOLT-4 leukemia"
measured_quantity = "TGI"
observed_result = "> 100 µM"

[[record]]
molecule = "COc1ccc(Cn2cc3c(c2-c2ccc(OC)cc2)CCc2cnoc2-3)cc1"
assay_system = "MOLT-4 leukemia"
measured_quantity = "TGI"
observed_result = "> 35 µM"


Measured TGI, CC1OC(O[C@H]2C3C=CO[C@@H](OC4OC(CO)C(O)C(O)C4O)C3[C@@]3(COC(=O)/C=C/c4ccc(O)cc4)O[C@@H]23)C(O)C(O)C1O (stereo partly specified) : > 100 µM

Item: O=C(O)/C(=C/C=C/c1ccccc1)c1csc(-c2nc(/C(=C\C=C\c3ccccc3)C(=O)O)cs2)n1 | TGI: 16.4 µM
